Values compiled from patent US20230391876A1.

target: T1, hFcRn on hFcRn-expressing HEK293 cells (human, UniProt P55899 24-365; P61769 21-119); assay: FACS on hFcRn HEK293 cells, 10 nM antibody, pH 6.0
T1 construct: whole, on cells; also called hFcRn HEK293
T1 sequence (P55899 24-365 limits assumed, chain 1 of 2): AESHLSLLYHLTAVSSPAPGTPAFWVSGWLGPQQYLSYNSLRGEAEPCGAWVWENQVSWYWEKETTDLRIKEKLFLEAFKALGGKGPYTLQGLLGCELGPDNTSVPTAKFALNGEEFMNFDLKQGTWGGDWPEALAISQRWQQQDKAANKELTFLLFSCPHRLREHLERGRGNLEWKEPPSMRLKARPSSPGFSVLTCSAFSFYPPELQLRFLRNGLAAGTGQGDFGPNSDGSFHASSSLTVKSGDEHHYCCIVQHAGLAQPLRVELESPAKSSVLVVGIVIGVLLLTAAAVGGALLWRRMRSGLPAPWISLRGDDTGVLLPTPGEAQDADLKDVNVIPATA
T1 sequence (P61769 21-119 limits assumed, chain 2 of 2): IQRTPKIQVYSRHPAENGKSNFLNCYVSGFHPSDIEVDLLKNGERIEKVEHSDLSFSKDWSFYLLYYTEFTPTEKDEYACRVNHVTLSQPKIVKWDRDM

{"binder": "HL161AN variant No. 10 (LC:N25S, HC:C32Y Q82T) (antibody, human IgG1, V domains shown, Variable domains only) VL: SYVLTQPPSVSVAPGQTARITCGGSNIGSTSVHWYQQKPGQAPVLVVHDDSDRPSGIPERFSGSNSGNTATLTISRVEAGDEADYYCQVRDSSSDHVIFGGGTKLTVLGQPKAAPSVTL VH: EVQLLESGGGLVQPGGSLRLSCAASEFTFGSYVMTWVRQAPGKGLEWVSVISGSGGSTYYADSVKGRFTISRDNSKNTLYLTMNSLRAEDTAVYYCAKTPWWLRSPFFDYWGQGTLVTVSS", "MFI": "2580 MFI"}
